Origin of measurements: ChEMBL document CHEMBL4052644

- experimental protocol: Selectivity index, ratio of IC50 for human FR2 cells to IC50 for human PC3 cells
- Format: functional
assay endpoint: Ratio IC50

C=C(C)[C@@H]1CC[C@]2(C(=O)O)CC[C@]3(C)[C@H](CC[C@@H]4[C@@]5(C)C/C(=C/C=C/c6ccccc6)C(=O)C(C)(C)[C@@H]5CC[C@]43C)[C@@H]12 = 1.684
C=C(C)[C@@H]1CC[C@]2(C(=O)O)CC[C@]3(C)[C@H](CC[C@@H]4[C@@]5(C)C/C(=C\c6ccc(Br)cc6)[C@H](O)C(C)(C)[C@@H]5CC[C@]43C)[C@@H]12 = 4.3
C=C(C)[C@@H]1CC[C@]2(C(=O)O)CC[C@]3(C)[C@H](CC[C@@H]4[C@@]5(C)C/C(=C\c6ccc(OC)cc6)[C@H](O)C(C)(C)[C@@H]5CC[C@]43C)[C@@H]12 = 2.914
C=C(C)[C@@H]1CC[C@]2(C(=O)O)CC[C@]3(C)[C@H](CC[C@@H]4[C@@]5(C)C/C(=C\c6ccc(F)cc6)C(=O)C(C)(C)[C@@H]5CC[C@]43C)[C@@H]12 = 11.1
C=C(C)[C@@H]1CC[C@]2(C(=O)O)CC[C@]3(C)[C@H](CC[C@@H]4[C@@]5(C)C/C(=C\c6ccsc6)C(=O)C(C)(C)[C@@H]5CC[C@]43C)[C@@H]12 = 3.095
C=C(C)[C@@H]1CC[C@]2(C(=O)O)CC[C@]3(C)[C@H](CC[C@@H]4[C@@]5(C)C/C(=C\c6cccc7ccccc67)C(=O)C(C)(C)[C@@H]5CC[C@]43C)[C@@H]12 = 2.318
C=C(C)[C@@H]1CC[C@]2(C(=O)O)CC[C@]3(C)[C@H](CC[C@@H]4[C@@]5(C)C/C(=C\c6ccc(F)c(Br)c6)C(=O)C(C)(C)[C@@H]5CC[C@]43C)[C@@H]12 = 5.881
C=C(C)[C@@H]1CC[C@]2(C(=O)O)CC[C@]3(C)[C@H](CC[C@@H]4[C@@]5(C)C/C(=C\c6cccc([N+](=O)[O-])c6)C(=O)C(C)(C)[C@@H]5CC[C@]43C)[C@@H]12 = 3.009
C=C(C)[C@@H]1CC[C@]2(C(=O)O)CC[C@]3(C)[C@H](CC[C@@H]4[C@@]5(C)C/C(=C\c6ccc(OC)cc6)C(=O)C(C)(C)[C@@H]5CC[C@]43C)[C@@H]12 = 3.522
C=C(C)[C@@H]1CC[C@]2(C(=O)O)CC[C@]3(C)[C@H](CC[C@@H]4[C@@]5(C)C/C(=C\c6ccc(Br)cc6)C(=O)C(C)(C)[C@@H]5CC[C@]43C)[C@@H]12 = 1.267

----------
- Tested on: MCF7
- experimental protocol: Growth inhibition of human MCF7 cells at 10 uM after 48 hrs by SRB assay relative to control
- Type: functional
- experimental parameters: MCF7, 48 h, read-out: GI
assay endpoint: inhibition of growth at 10 µM (%)

C=C(C)[C@@H]1CC[C@]2(C(=O)O)CC[C@]3(C)[C@H](CC[C@@H]4[C@@]5(C)C/C(=C\c6c(Cl)cccc6Cl)C(=O)C(C)(C)[C@@H]5CC[C@]43C)[C@@H]12 = 54
C=C(C)[C@@H]1CC[C@]2(C(=O)O)CC[C@]3(C)[C@H](CC[C@@H]4[C@@]5(C)C/C(=C/C=C/c6ccccc6)C(=O)C(C)(C)[C@@H]5CC[C@]43C)[C@@H]12 = 84
C=C(C)[C@@H]1CC[C@]2(C(=O)O)CC[C@]3(C)[C@H](CC[C@@H]4[C@@]5(C)C/C(=C/C=C/c6ccccc6)[C@H](O)C(C)(C)[C@@H]5CC[C@]43C)[C@@H]12 = 49
C=C(C)[C@@H]1CC[C@]2(C(=O)O)CC[C@]3(C)[C@H](CC[C@@H]4[C@@]5(C)CCC(=O)C(C)(C)[C@@H]5CC[C@]43C)[C@@H]12 = 43
C=C(C)[C@@H]1CC[C@]2(C(=O)O)CC[C@]3(C)[C@H](CC[C@@H]4[C@@]5(C)C/C(=C\c6cccc7ccccc67)C(=O)C(C)(C)[C@@H]5CC[C@]43C)[C@@H]12 = 67
